Experiment: Stability in human plasma
Conditions: 37° C., 60 minutes
RECORDED_METRIC: Percentage of the compound remaining in plasma (%)

Here's what some known entries look like.
COMPOUND	VALUE_UNIT	TEST_VALUE
CC(C)(C)C(=O)OCOc1ccc([N+](=O)[O-])c2cccnc12 [Compound 4, (5-nitroquinolin-8-yloxy)methyl pivalate]	%	54.7
CCC(NC(=O)OCOc1ccc([N+](=O)[O-])c2cccnc12)C(=O)OC (stereo not drawn)	%	93.4
CC(C)OC(=O)[C@H](C)NP(=O)(OCOc1ccc([N+](=O)[O-])c2cccnc12)Oc1ccccc1 (stereo partly drawn)	%	87.2
CN(CC(O)CO)C(=O)OCOc1ccc([N+](=O)[O-])c2cccnc12 (stereo not drawn)	%	89.2

I: O=[N+]([O-])c1ccc(O)c2ncccc12
II: COC(=O)[C@H](Cc1ccccc1)NC(=O)OCOc1ccc([N+](=O)[O-])c2cccnc12
**Query** Hello, I am sorting some records. Could you say if I or II has the smaller Percentage of the compound remaining in plasma value? Refer to your chosen entry by its label in the reply.
**Result** II

Values compiled from patent US12152048B2.
